Reported MFI is given for each of the following binders.
tested-target: T1, human TMEM106B (human, UniProt Q9NUM4 2-274)
T1 construct: Full-length, on transiently transfected HEK293 cells, or natively expressed on HeLa, U251 and A549 cells; also called huTMEM106B; huTMEM
protocol-description: FACS HEK+huTMEM, 1.0 ug/ml
Write the value as a bare number.

# example entries with known answers
{"columns": ["binder", "observed-measurement"],
 "data": [
  ["anti-TMEM106B antibody TM-7 (antibody, V domains shown) VH: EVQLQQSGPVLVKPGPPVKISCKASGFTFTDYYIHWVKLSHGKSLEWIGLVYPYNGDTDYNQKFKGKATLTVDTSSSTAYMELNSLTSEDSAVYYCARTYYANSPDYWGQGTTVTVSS VL: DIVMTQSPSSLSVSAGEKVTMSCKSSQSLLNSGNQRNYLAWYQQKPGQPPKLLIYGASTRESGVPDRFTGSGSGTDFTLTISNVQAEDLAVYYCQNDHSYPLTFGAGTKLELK", 40000],
  ["anti-TMEM106B antibody TM-2 (antibody, V domains shown) VH: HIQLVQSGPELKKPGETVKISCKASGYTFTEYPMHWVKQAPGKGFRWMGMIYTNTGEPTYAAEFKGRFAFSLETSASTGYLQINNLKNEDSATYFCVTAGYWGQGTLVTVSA VL: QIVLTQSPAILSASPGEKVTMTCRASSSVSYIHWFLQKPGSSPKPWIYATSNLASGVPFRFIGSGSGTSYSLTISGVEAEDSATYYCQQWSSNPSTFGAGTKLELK", 29300]
]}

Given anti-TMEM106B antibody TM-3 (antibody, V domains shown) VH: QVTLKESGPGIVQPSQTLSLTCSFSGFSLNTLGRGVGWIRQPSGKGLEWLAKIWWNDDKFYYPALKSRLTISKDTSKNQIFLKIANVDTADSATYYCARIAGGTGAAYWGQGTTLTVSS VL: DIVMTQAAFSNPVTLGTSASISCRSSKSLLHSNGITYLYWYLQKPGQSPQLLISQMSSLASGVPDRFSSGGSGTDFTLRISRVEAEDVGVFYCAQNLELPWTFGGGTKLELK , state its recorded MFI.
89100
